Each item that follows carries a reported Papp.
assay-method-text: in vitro
study-conditions: PAMPA
Please answer using a numeric value trailed by its unit.

>  <compound>
COCCN(Cc1ccccc1)S(=O)(=O)c1c(OC)ccc(Cl)c1S(C)(=O)=O

>  <Papp>
14.6 ×10⁻⁶ cm/s

$$$$
>  <compound>
C[S+]([O-])c1c(Cl)ccc2c1S(=O)(=O)N(Cc1ccccc1)CCO2 (stereo not drawn)

>  <Papp>
22 ×10⁻⁶ cm/s

$$$$
>  <compound>
COc1ccc([S+](C)[O-])cc1S(=O)(=O)N(Cc1ccccc1)Cc1ccccc1 (stereo not drawn)

>  <Papp>
14 ×10⁻⁶ cm/s

$$$$
>  <compound>
CCCN(Cc1ccc(F)cc1)S(=O)(=O)c1cc([S+](C)[O-])ccc1OC (stereo not drawn)

>  <Papp>
18.6 ×10⁻⁶ cm/s

$$$$
>  <compound>
COc1ccc(S(N)(=O)=O)cc1S(=O)(=O)N(Cc1ccccc1)Cc1ccccc1

>  <Papp>
3.76 ×10⁻⁶ cm/s

$$$$

Ask: Could you share which Papp value was measured for COCCN(Cc1ccccc1)S(=O)(=O)c1c(OC)ccc(Cl)c1[S+](C)[O-] (stereo not drawn) ?
Result: 17.6 ×10⁻⁶ cm/s

* * *

assay-method-text: physchem
study-conditions: HPLC, Ascentis Express RP Amide column, pH 7.4, eLogD, experimental
Each item that follows carries a reported chromatographic logD.
Give your answer as a number; write no unit.

>  <molecule>
O=C(c1ccc(OCC2CCCO2)c(S(=O)(=O)NCc2ccccc2)c1)N1CCOCC1 (centres unmarked) [DNDI0003407877]

>  <chromatographic logD>
2.7

$$$$
>  <molecule>
COc1ccc(Cl)cc1S(=O)(=O)N(Cc1ccccc1)CC(N)c1ccc(F)cc1 (centres unmarked) [DNDI0003389932]

>  <chromatographic logD>
4.3

$$$$
>  <molecule>
CN(C)CCN(Cc1ccccc1)S(=O)(=O)c1ccc(N2C(=O)CCC2=O)cc1 [DNDI0003368291]

>  <chromatographic logD>
2.5

$$$$

Ask: Could you share which chromatographic logD value was measured for COc1ccc(CN2CCC(F)(F)CC2)cc1S(=O)(=O)N(Cc1ccc(F)cc1)Cc1ccc(F)cc1 [DNDI0003389116] ?
Result: 4.8

Ask: Query O=S(=O)(c1cccnc1N1CCOCC1)N(Cc1ccc(F)cc1)Cc1ccc(F)cc1 [DNDI0003389119] next
Result: 4.5

Ask: Query O=S1(=O)NCNc2cc(Cl)c(S(=O)(=O)N(Cc3ccccc3)Cc3ccccc3)cc21 [DNDI0003425512] next
Result: 4.2

Ask: Query COc1ccc(S(C)(=O)=O)cc1S(=O)(=O)N(Cc1ccccc1)CC(C)(C)C [DNDI0003425524] next
Result: 3.6

* * *

Each item that follows carries a reported microsomal CLint at 0.5 μM.
assay-method-text: in vitro
study-conditions: human, s9, pH 7.4, Clint human mic., Fig. 2; human microsomes (S9 fractions)
Write it as a number; the unit µL/min/mg goes unstated.

>  <item-smiles>
CCCCCOc1cc(C)c(Cl)cc1S(=O)(=O)NCc1cccs1

>  <microsomal CLint at 0.5 μM (µL/min/mg)>
624

$$$$
>  <item-smiles>
CCCCCOc1cc(C)c(C)cc1S(=O)(=O)NC1CCCC1

>  <microsomal CLint at 0.5 μM (µL/min/mg)>
567

$$$$

Ask: Could you share which microsomal CLint at 0.5 μM value was measured for COc1cc(S(=O)(=O)N(Cc2ccccc2)Cc2ccccc2)c(OC)cc1C ?
Result: 828

* * *

Each item that follows carries a reported microsomal CLint at 0.5 h, 0.5 µM.
assay-method-text: in vitro
study-conditions: mouse, microsomes, pH 7.4, Microsome Clint Mouse, intrinsic in vitro clearance, liver microsomes
Please answer using a numeric value trailed by its unit.

Solved entries (count: 2):
>  <compound>
CS(=O)(=O)c1ccccc1S(=O)(=O)N(Cc1ccccc1)Cc1ccccc1 [Compound 14]

>  <microsomal CLint at 0.5 h, 0.5 µM>
2880 µL/min/mg

$$$$
>  <compound>
COc1ccc(N2CCOCC2)cc1S(=O)(=O)N(Cc1ccc(F)cc1)Cc1ccc(F)cc1 [Compound 25]

>  <microsomal CLint at 0.5 h, 0.5 µM>
1400 µL/min/mg

$$$$

Ask: Could you share which microsomal CLint at 0.5 h, 0.5 µM value was measured for COc1ccc(S(N)(=O)=O)cc1S(=O)(=O)N(Cc1ccccc1)Cc1ccccc1 [Compound 27] ?
Result: 884 µL/min/mg

Ask: Query Cn1cccc(S(=O)(=O)N(Cc2ccc(F)cc2)Cc2ccc(F)cc2)c1=O [Compound 31] next
Result: 2450 µL/min/mg

Ask: Query COc1ccc(C(=O)N2CCOCC2)cc1S(=O)(=O)N(Cc1ccccc1)Cc1ccccc1 [Compound 22] next
Result: 2020 µL/min/mg

* * *

Tested on: Leishmania infantum MHOM/MA(BE)/67/ITMAP263 intracellular amastigotes
assay-method-text: microbe, parasite or virus in culture
study-conditions: Macrophage, in Mus musculus, read-out: L. infantum MHOM/MA(BE)/67/ITMAP263 intracellular amastigotes IC50, intracellular amastigotes
quantity-measured: IC50

>  <compound>
O=S(=O)(c1cc(F)ccc1F)N(Cc1ccc(F)cc1)Cc1ccc(F)cc1

>  <target-or-test-system>
Leishmania infantum MHOM/MA(BE)/67/ITMAP263 intracellular amastigotes

>  <IC50>
> 64 µM

$$$$
>  <compound>
COc1ccc(OC)c(S(=O)(=O)N(Cc2ccccc2)C2CCCNC2)c1 (centres unmarked)

>  <target-or-test-system>
Leishmania infantum MHOM/MA(BE)/67/ITMAP263 intracellular amastigotes

>  <IC50>
29.5 µM

$$$$
>  <compound>
COc1ccc(OC)c(S(=O)(=O)N(Cc2ccc(F)cc2)Cc2ncccn2)c1

>  <target-or-test-system>
Leishmania infantum MHOM/MA(BE)/67/ITMAP263 intracellular amastigotes

>  <IC50>
13.8 µM

$$$$
>  <compound>
O=S(=O)(c1cc(F)ccc1F)N(Cc1ccccc1)C(CO)CO

>  <target-or-test-system>
Leishmania infantum MHOM/MA(BE)/67/ITMAP263 intracellular amastigotes

>  <IC50>
57 µM

$$$$

Ask: Could you share which IC50 value was measured for COc1ccc(Cl)cc1S(=O)(=O)N(Cc1ccccc1)C(Cc1ccccc1)C(N)=O (centres unmarked) ?
Result: 4.73 µM

Ask: Query COc1ccc(OC)c(S(=O)(=O)N(Cc2ncccn2)Cc2ncccn2)c1 next
Result: > 64 µM

Ask: Query O=S1(=O)c2ccccc2[C@H](O)[C@@H](Cc2ccccc2)N1Cc1ccccc1 next
Result: 8.88 µM

Ask: Query COc1ncccc1S(=O)(=O)N(Cc1ccc(F)cc1)Cc1ccc(F)cc1 next
Result: 13 µM

* * *

assay-method-text: in vitro
study-conditions: human, HepG2 cells
Each item that follows carries a reported CC50.

>  <compound>
COc1cc(S(=O)(=O)N(Cc2ccccc2)Cc2ccccc2)c(OC)cc1C

>  <CC50>
39 µM

$$$$
>  <compound>
COc1ccc(S(=O)(=O)N2Cc3ccccc3CC2C(=O)NCc2ccccc2)cc1 (stereo not drawn)

>  <CC50>
> 50 µM

$$$$
>  <compound>
CCCCCOc1cc(C)c(Cl)cc1S(=O)(=O)NCc1cccs1

>  <CC50>
40 µM

$$$$
>  <compound>
CCCCCOc1cc(C)c(Cl)cc1S(=O)(=O)NCc1ccco1

>  <CC50>
> 50 µM

$$$$
>  <compound>
CCCCCOc1cc(C)c(C)cc1S(=O)(=O)NC1CCCC1

>  <CC50>
> 50 µM

$$$$
>  <compound>
O=S(=O)(c1ccc2nncn2c1)N(Cc1cccc(F)c1)c1ccc2c(c1)OCO2

>  <CC50>
> 50 µM

$$$$
>  <compound>
COc1ccc(C2c3cccn3CCN2S(=O)(=O)c2ccc3ccccc3c2)cc1 (stereo not drawn)

>  <CC50>
> 50 µM

$$$$
>  <compound>
CCCCOc1cc(C)c(Cl)cc1S(=O)(=O)NCc1cccs1

>  <CC50>
> 50 µM

$$$$

Now examine the next entry.
Ask: Could you share which CC50 value was measured for COc1ccc(CN(c2ccc3c(c2)OCO3)S(=O)(=O)c2ccc3nncn3c2)cc1 ?
Result: > 50 µM

* * *

assay-method-text: in vitro
study-conditions: PAMPA
quantity-measured: Papp (×10⁻⁶ cm/s)
Write it as a number; the unit ×10⁻⁶ cm/s goes unstated.

>  <molecule>
COc1ccc(C#N)cc1S(=O)(=O)N(Cc1ccc(C(F)(F)F)nc1)Cc1ccc(C(F)(F)F)nc1

>  <Papp, ×10⁻⁶ cm/s>
3.45

$$$$

Ask: Could you share which Papp value was measured for COc1ccc(S(N)(=O)=O)cc1S(=O)(=O)NCc1ccccc1 ?
Result: 0.61

Ask: Query COc1ccc(C(=O)N(C)CCO)cc1S(=O)(=O)N(Cc1ccc(F)cc1)Cc1ccc(F)cc1 next
Result: 11.2

* * *

assay-method-text: in vitro
study-conditions: mouse, microsomes, pH 7.4, Microsome Clint,u Mouse, Table 2; intrinsic in vitro clearance, liver microsomes
quantity-measured: microsomal CLint at 0.5 μM (µL/min/mg)
Write it as a number; the unit µL/min/mg goes unstated.

Solved entries (count: 3):
>  <item-smiles>
COCCN(Cc1ccc(F)cc1)S(=O)(=O)c1cc(C(=O)N2CCOCC2)ccc1OC

>  <microsomal CLint at 0.5 μM (µL/min/mg)>
60

$$$$
>  <item-smiles>
CCN(Cc1ccccc1)S(=O)(=O)c1cc(OC)ccc1OC

>  <microsomal CLint at 0.5 μM (µL/min/mg)>
3500

$$$$
>  <item-smiles>
COc1ccc(C#N)cc1S(=O)(=O)N(Cc1ccc(F)cc1)C1CCOCC1

>  <microsomal CLint at 0.5 μM (µL/min/mg)>
253

$$$$

Now examine the next entry.
Ask: Could you share which microsomal CLint at 0.5 μM value was measured for COc1ccc(OC)c(S(=O)(=O)N(Cc2ccc(F)cc2)Cc2ccnn2C)c1 ?
Result: 5480
